Known binding signal of a selection of sequences
Molecular target: HNF4alpha2 (COS-7 nuclear extract) (Homo sapiens, UniProt P41235 1-474)
Sequence: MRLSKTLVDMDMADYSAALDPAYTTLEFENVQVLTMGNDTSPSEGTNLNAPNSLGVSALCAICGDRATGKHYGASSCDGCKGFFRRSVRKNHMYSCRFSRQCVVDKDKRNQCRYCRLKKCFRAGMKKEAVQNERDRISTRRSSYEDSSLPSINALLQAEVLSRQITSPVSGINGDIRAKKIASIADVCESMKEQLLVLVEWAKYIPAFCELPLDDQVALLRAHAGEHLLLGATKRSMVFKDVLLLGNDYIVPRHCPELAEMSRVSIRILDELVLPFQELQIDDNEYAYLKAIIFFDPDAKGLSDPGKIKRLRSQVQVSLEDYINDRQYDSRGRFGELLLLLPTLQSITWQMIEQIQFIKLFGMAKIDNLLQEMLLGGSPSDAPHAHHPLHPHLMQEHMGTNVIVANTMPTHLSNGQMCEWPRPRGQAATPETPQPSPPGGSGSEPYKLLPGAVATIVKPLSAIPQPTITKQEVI
Experiment: protein-binding microarray; COS-7 nuclear extract on double-stranded Agilent 4x180k PBM; binding buffer, salt, pH and temperature not given in the material; high values mean tight binding
Settings: chain copies: 2; label: 3' end of strand 1 on the slide; dsDNA, one strand shown
Whole data set: some 18,000 sequences, median “log2 normalized intensity” near 0.39, cut for the highest 2% near 6.6. This excerpt belongs to a sample that is enriched for the highest values.
Quantity measured: binding signal

* CGAACCTGTCTCCAGAGGACTTGCGGTGTTGCCTAGGGAGATTAGAGTATCGGTCGA | 0.482 log2 normalized intensity
* TCAAAGGTCAGAAAAAGCTGACGCCCCACCGCCTAGGGAGATTAGAGTATCGGTCGA | 3.28 log2 normalized intensity
* GCAGTGAGGGTGGGTTCAAAGGTCAGAAAAGCCTAGGGAGATTAGAGTATCGGTCGA | 7.95 log2 normalized intensity
* AGTTTGGTGGACTTTGGCCGTGAAGCCGTCGCCTAGGGAGATTAGAGTATCGGTCGA | 6.2 log2 normalized intensity
* AGATGGGGTGAACTTTGGACCACATATAGAGCCTAGGGAGATTAGAGTATCGGTCGA | 7.14 log2 normalized intensity
* CATGTGGTCCTAAGACTAACCTTTGACCATGCCTAGGGAGATTAGAGTATCGGTCGA | 7.89 log2 normalized intensity
* TACTCATGTGGTCCTAAGACTAACCTTTGAGCCTAGGGAGATTAGAGTATCGGTCGA | 6.33 log2 normalized intensity
* CCCACGTACATTGCACCCTCCAGGAGCCCCGCCTAGGGAGATTAGAGTATCGGTCGA | 2.07 log2 normalized intensity
* AGATCAGATGGGGTGAACTTTGGACCACATGCCTAGGGAGATTAGAGTATCGGTCGA | 7.41 log2 normalized intensity
* GGCATTAATTCTTCTTTGAAAGTTTGGTGGGCCTAGGGAGATTAGAGTATCGGTCGA | 2.23 log2 normalized intensity
* TAGAAGCAGTGGGACAAAGGTCACAGGAAAGCCTAGGGAGATTAGAGTATCGGTCGA | 4.42 log2 normalized intensity
* CTCAGTCATACCACATGGATGGATTCAGATGCCTAGGGAGATTAGAGTATCGGTCGA | 0.259 log2 normalized intensity
* GACTCAGAAAAATATGTGGACTTCAAAGGTGCCTAGGGAGATTAGAGTATCGGTCGA | 1.29 log2 normalized intensity
* TCTAAGATTGGCCCTGATAATCAATCCAGCGCCTAGGGAGATTAGAGTATCGGTCGA | -0.941 log2 normalized intensity
* TAATTCTTCTTTGAAAGTTTGGTGGACTTTGCCTAGGGAGATTAGAGTATCGGTCGA | 6.32 log2 normalized intensity
* TTCCTGGATTGTGAAACACAGGACTTGATCGCCTAGGGAGATTAGAGTATCGGTCGA | 0.71 log2 normalized intensity
* GGTGGACTTTGGCCGTGAAGCCGTCCTGTCGCCTAGGGAGATTAGAGTATCGGTCGA | 5.03 log2 normalized intensity
* TGGGTTCAAAGGTCAGAAAAAGCTGACGCCGCCTAGGGAGATTAGAGTATCGGTCGA | 6.84 log2 normalized intensity
* CTTCTTTGAAAGTTTGGTGGACTTTGGCCGGCCTAGGGAGATTAGAGTATCGGTCGA | 9.62 log2 normalized intensity
* AGAACAAACAATGGTTTGGGACAAAGTTTGGCCTAGGGAGATTAGAGTATCGGTCGA | 0.489 log2 normalized intensity
* CAGGGGTCATCAGATAGATGGTCAGTGAACGCCTAGGGAGATTAGAGTATCGGTCGA | 1.44 log2 normalized intensity
